Measured CC50 of individual entries
Assay: Functional metabolic assay to measure dose dependent changes in cell viability from drug treatment in Vero E6/TMPRSS2 cells (cotreated with P-gp inhibitor, Elacridar). […] Cytotoxicity is reported via measuring absorbance and analysis of MTT/MTS assays in uninfected cells. The assay has been performed by Icahn School of Medicine at Mount Sinai.
Format: toxicity, cell-based, VeroE6/TMPRSS2
Settings: chlorocebus sabaeus, Vero E6/TMPRSS2 cells, with Elacridar (P-gp inhibitor, concentration not stated); p-gp concentration 2 uM

CCc1nc2c(C(=O)Nc3ccc4c(c3)CNC4)cc(Br)cc2[nH]1 33.5 µM

Input N[C@H]1Cc2ccc(NC(=O)c3cc(Cl)cc4[nH]ncc34)cc2C1 , output reported CC50.
> 50 µM

Assign CC50 to the following record: C[C@@]1(O)[C@H](O)[C@@H](CO)O[C@H]1n1ccc2c(N)ncnc21
> 10 µM

Determine its reported CC50: O=C(Nc1cc(Cl)cc(C(=O)Nc2cccc(-c3nnn[nH]3)c2)c1)OCc1ccccc1
> 50 µM

Tell me measured CC50 for CCc1cc(C(=O)Nc2cccc(-c3nnn[nH]3)c2)sc1-c1ccc(Cl)cc1 please.
> 50 µM
